# Test system: Saos2
# Assay Overview: 72 h viability assay (CellTiter-Glo)
# Format: cell-based
# Particulars: Homo sapiens, SAOS-2, Saos2 (Bone), inflection point of titration curve
Examples of compounds with documented pIC50 follow.
Notebook: values listed as pIC50 are -log10 of the concentration (mol/L).

INSERT INTO measurements (compound, observed_property, numeric_result) VALUES
  ('OC[C@H]1C[C@@H](O)CCN1CCc1ccc(Nc2nc(-c3ccc(C(F)(F)F)cc3)cs2)cc1 [Compound A]', 'pIC50', 5.15);

// moving on: another record for pIC50
## Task Quick one: pIC50 for OC[C@H]1C[C@H](O)CN1CCCc1ccc(Nc2nc(-c3cccc(C(F)(F)F)c3)cs2)cc1 [Compound B] ?
## Result 4.87

###

# System: human melanoma cell line LOX
# Assay Overview: Endogenous S1P levels 24 h after compound treatment
# Format: cell-based
# Particulars: 24 h treatment, read-out: IC50, endogenous S1P production (LOX)
Observed Property: IC50 (µM)
Reply numerically in µM, unit not repeated.

## Task Quick one: IC50 for Oc1ccc(Nc2nc(-c3ccc(Cl)cc3)cs2)cc1 [SKII, reference compound] ?
## Result 7.5

###

# Test Target: hSPHK1 (Homo sapiens, UniProt Q9NYA1)
# Sequence (Q9NYA1 whole entry): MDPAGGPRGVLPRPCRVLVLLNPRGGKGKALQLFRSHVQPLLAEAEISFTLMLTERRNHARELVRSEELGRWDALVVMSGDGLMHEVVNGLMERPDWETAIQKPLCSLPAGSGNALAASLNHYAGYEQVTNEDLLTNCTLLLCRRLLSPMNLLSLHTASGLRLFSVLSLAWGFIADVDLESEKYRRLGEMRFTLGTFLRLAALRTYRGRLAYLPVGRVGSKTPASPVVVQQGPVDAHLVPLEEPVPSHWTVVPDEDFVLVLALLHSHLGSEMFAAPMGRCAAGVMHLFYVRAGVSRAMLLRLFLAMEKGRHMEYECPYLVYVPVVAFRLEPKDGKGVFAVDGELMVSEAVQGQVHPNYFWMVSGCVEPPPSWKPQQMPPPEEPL
Observed Property: IC50 (nM)
Reply numerically in nM, unit not repeated.

## Task Quick one: IC50 for "OC[C@H]1C[C@H](O)CN1CCCc1ccc(Nc2nc(-c3cccc(C(F)(F)F)c3)cs2)cc1" ?
## Result 8

###

# System: UACC257
# Assay Overview: 72 h viability assay (CellTiter-Glo)
# Type: cell-based
# Particulars: Homo sapiens, UACC-257, UACC257 (Skin), inflection point of titration curve
Examples of molecules with documented IC50 follow.
Reply numerically in µM, unit not repeated.

INSERT INTO assay_data (molecule, unit_of_measurement, numeric_result) VALUES
  ('OC[C@H]1C[C@@H](O)CCN1CCc1ccc(Nc2nc(-c3ccc(C(F)(F)F)cc3)cs2)cc1 [Compound A]', 'µM', 4.4);

// moving on: another record for IC50
## Task Quick one: IC50 for OC[C@H]1C[C@H](O)CN1CCCc1ccc(Nc2nc(-c3cccc(C(F)(F)F)c3)cs2)cc1 [Compound B] ?
## Result 6.5

###

# Test Target: mSPHK1 (Mus musculus, UniProt Q8CI15)
# Sequence (Q8CI15 whole entry): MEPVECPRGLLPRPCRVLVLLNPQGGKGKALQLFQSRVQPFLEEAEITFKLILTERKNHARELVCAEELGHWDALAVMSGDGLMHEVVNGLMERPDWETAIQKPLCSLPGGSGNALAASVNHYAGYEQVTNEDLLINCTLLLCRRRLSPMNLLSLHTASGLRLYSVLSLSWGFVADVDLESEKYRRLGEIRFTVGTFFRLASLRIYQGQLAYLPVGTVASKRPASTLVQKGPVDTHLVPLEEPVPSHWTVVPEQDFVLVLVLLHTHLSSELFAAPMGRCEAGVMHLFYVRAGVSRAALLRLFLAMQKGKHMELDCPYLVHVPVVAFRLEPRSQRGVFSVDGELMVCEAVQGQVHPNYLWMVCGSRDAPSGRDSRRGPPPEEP
Observed Property: IC50 (nM)
Reply numerically in nM, unit not repeated.

INSERT INTO assay_data (entry_smiles, observed_property, unit_of_measurement, numeric_result) VALUES
  ('OC[C@H]1C[C@@H](O)CCN1CCc1ccc(Nc2nc(-c3ccc(C(F)(F)F)cc3)cs2)cc1', 'IC50', 'nM', 64);

// moving on: another record for IC50
## Task Quick one: IC50 for "OC[C@H]1C[C@H](O)CN1CCCc1ccc(Nc2nc(-c3cccc(C(F)(F)F)c3)cs2)cc1" ?
## Result 55
